# measured on: Cytochrome P450 2D6 (Homo sapiens)
# assay comment: Cytochrome panel assay with activity outcomes
# condition details: recombinant CYP, pro-luciferin dealkylation, luminescence, p450-cyp2d6; series mostly up to 57.1 µM
Hit rate of the full screen: of about 16,000 compounds, about 2,600 (16%) were called active. About 20% were inconclusive and are not listed. Calls come from the whole dose curve; as a rule, active = well fitted curve in the direction sought with a large enough effect; inconclusive = small, poorly fitted or top-dose-only effect, or effect the other way; inactive = no such curve, though single readings can be large or run the other way. These entries were drawn from the full list.
Outcome codes: label 1 = active, label 0 = inactive

# compound, category label
records = [
    ("C[C@@]12CCC(=O)C=C1CC[C@@H]1[C@@H]2[C@H](O)C[C@]2(C)[C@@H]1CC[C@]2(O)C(=O)COC(=O)CCC(=O)O", "label 0"),
    ("O=C(COc1ccc([N+](=O)[O-])cc1)Nc1ccc(C(=O)NCc2cccnc2)cc1", "label 1"),
    ("O=C(NNC(=O)C1CCCCC1)c1cnccn1", "label 0"),
    ("COc1ccccc1COC(=O)Nc1c(C)nn(C)c1Cl", "label 0"),
    ("Cn1cccc1C(=O)N1CCC2(CC1)CN(c1ccccn1)C2", "label 0"),
    ("CCOC(=O)c1c(N2C(=O)Nc3cc(Cl)c(Cl)cc3N2O)sc2c1CCCCC2", "label 0"),
    ("CCN(CC)C(=O)N1CCN(C)CC1", "label 0"),
    ("C=CCNC(=S)N/N=C/c1ccc(-c2cc(Cl)ccc2Cl)o1", "label 0"),
    ("C[C@H]1C2=C3C(CC[C@H]4C(OCc5ccc(F)cc5C(F)(F)F)OC[C@](C)([C@@H]34)N(C(=O)OC(C)(C)C)C2)C(CO)C1CO (some centres undefined)", "label 0"),
    ("Cc1ccc(S(=O)(=O)Oc2ccc(C3C4=C(CCCC4=O)OC4=C3C(=O)CCC4)cc2)cc1", "label 1"),
    ("N=C(C[C@@H](O)COc1ccccc1-c1ccccc1)N1CCCCC1", "label 1"),
    ("O=c1cnc2cncnc2n1Cc1ccccc1", "label 0"),
    ("CC(=O)[C@@]1(O)Cc2c(O)c3c(c(O)c2[C@H](O[C@H]2C[C@H](N)[C@H](O)[C@H](C)O2)C1)C(=O)c1ccccc1C3=O", "label 0"),
    ("CCOC(=O)CC(=O)CSc1nc(-c2ccccc2)cc(-c2ccc(Cl)cc2)c1C#N", "label 0"),
    ("CSc1nc2ccc3nc(NC(=O)c4cccs4)sc3c2s1", "label 0"),
    ("CN(C)c1nc(-c2ccccc2C(F)(F)F)nc2ccccc12", "label 1"),
    ("COc1ccc(CNc2ncncc2-c2ccc(C(=O)N(C)C)cc2)c(OC)c1", "label 1"),
    ("c1ccc2c[n+](Cc3ccnc4ccccc34)ccc2c1", "label 1"),
    ("CCN1CCN(c2nc(C)c3c(n2)CCCC3=O)CC1", "label 0"),
]

----------
# measured on: Cytochrome P450 2D6 (Homo sapiens)
# assay comment: Cytochrome panel assay with activity outcomes
# condition details: recombinant CYP, pro-luciferin dealkylation, luminescence, p450-cyp2d6; series mostly up to 57.1 µM
Among all 16,000 compounds or so, about 2,600 (16%) were called active. Roughly 20% stayed inconclusive and do not appear here. The call rests on the fitted dose curve; in most records, active means well fitted curve in the direction sought with a large enough effect; inconclusive means small, poorly fitted or top-dose-only effect, or effect the other way; inactive means no such curve, though single readings can be large or run the other way. These entries were drawn from the full list.
Outcomes: TRUE = active, FALSE = inactive

# compound, category label
data = [
    ("Cn1c(=O)c(-c2cc(F)cc(F)c2)nc2cncnc21", "FALSE"),
    ("Cc1nc2cnc(N3CCNCC3)nc2n(-c2ccccc2)c1=O", "FALSE"),
    ("O=C(CNc1cccc(Cl)c1)c1ccc(Cl)cc1", "TRUE"),
    ("CS(=O)(=O)N1CCN(c2ccc(C(=O)NC3C4CC5CC(C4)CC3C5)cc2[N+](=O)[O-])CC1 (centres undefined)", "FALSE"),
]
